# System: Streptococcus sp. 'group A'
# test-description: Streptococcus pyogenes SK(-)GAS viability under kanamycin – luminescence, BacTiterGlo, confirmation, counter-screen for streptokinase expression inhibitor project, dose response (AID 1900)
# Format: functional, organism-based
Activity calls are given as the source filed them.
For each entry below, report its EC50 value.

Parameter requested: EC50. Apply to each item below.
1. COc1cccc(NC(S)=NN=C2CCCCCC2)c1
2. Cc1ccc(C(=O)Nc2nnc(C3=COCCO3)o2)cc1C
3. COc1cc(/C=N/Nc2ncnc3sc4c(c23)CCC4)ccc1O
4. O=[N+]([O-])c1ccc(/C=[N+](\[O-])CCO)o1
5. CC[C@@H](C)[C@H](NC(=O)OC(C)(C)C)c1nnc(S(=O)(=O)Cc2cc(C)ccc2C)o1

1. 17.5 µM (active)
2. 5.17 µM (active)
3. 3.88 µM (active)
4. 3.97 µM (active)
5. 16.2 µM (active)

---

# target-system: Kappa-type opioid receptor (Homo sapiens)
# Sequence (P41145 whole entry): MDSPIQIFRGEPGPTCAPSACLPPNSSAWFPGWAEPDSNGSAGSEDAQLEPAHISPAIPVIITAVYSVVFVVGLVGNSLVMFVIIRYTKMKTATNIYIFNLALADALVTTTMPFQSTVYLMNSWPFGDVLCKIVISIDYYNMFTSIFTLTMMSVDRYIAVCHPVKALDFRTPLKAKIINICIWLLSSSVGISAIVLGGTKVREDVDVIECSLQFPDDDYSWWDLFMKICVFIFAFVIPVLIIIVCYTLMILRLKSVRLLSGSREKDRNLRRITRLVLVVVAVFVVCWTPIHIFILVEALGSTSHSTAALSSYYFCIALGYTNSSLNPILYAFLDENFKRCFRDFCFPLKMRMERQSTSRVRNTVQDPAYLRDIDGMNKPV
# Type: functional
readout: IC50 (µM)
Answers are plain numbers, in µM.

Note to self: IC50 recorded for Cc1cn(-c2cc(NC(=O)c3ccc(C)c(NC(=O)c4cccc(-c5cnnc(O)c5)c4)c3)cc(C(F)(F)F)c2)cn1 was 5.1

---

# target-system: Paired box protein Pax-8 (Homo sapiens)
# Sequence (Q06710 whole entry): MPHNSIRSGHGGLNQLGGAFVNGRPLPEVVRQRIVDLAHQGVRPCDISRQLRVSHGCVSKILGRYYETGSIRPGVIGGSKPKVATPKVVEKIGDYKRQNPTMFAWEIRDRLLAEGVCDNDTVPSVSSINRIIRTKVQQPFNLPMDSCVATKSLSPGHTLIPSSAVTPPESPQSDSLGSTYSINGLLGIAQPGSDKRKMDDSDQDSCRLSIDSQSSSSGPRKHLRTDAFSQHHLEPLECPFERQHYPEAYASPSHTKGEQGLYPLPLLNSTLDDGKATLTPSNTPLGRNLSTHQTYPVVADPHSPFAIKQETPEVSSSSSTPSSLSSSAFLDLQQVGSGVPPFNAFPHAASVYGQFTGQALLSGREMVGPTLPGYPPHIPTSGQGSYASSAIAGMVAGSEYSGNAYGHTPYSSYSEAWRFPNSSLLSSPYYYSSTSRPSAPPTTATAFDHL
# test-description: PAX8 transcriptional activity inhibition in RMG-I – RMG-I cells, luciferase, cherry-pick, dose response (AID 687027);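 further: luciferase reporter driven by Pax8 target thyroperoxidase promoter measured by SteadyGlo luminescence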
# Format: functional, cell-based
Active and inactive are the calls of the source.
For each entry below, report its AC50 value.

compound	AC50
COc1cccc(S(=O)(=O)N2CCCCN3[C@@H](CO)[C@@H](c4ccc(C#CCC(C)C)cc4)[C@@H]3C2)c1	14.6 µM (active)
N=C(N)N/N=C(\c1ccc(F)cc1)c1ccc(C(F)(F)F)cc1	3.32 µM (active)
C[C@@H]1CCCCO[C@H](CN(C)Cc2ccc(C(F)(F)F)cc2)[C@H](C)CN([C@H](C)CO)C(=O)c2cc(NS(=O)(=O)c3ccc(F)cc3)ccc2O1	6.71 µM (active)
COc1cccc(S(=O)(=O)N(C)C[C@@H]2OCc3ccccc3-c3c(n(C)c4ccccc34)C(=O)N([C@@H](C)CO)C[C@@H]2C)c1	5.8 µM (active)
O=C1CN(S(=O)(=O)Cc2ccccc2)C[C@H]2[C@H](c3ccc(C#Cc4ccc(F)cc4)cc3)[C@H](CO)N12	8.12 µM (active)
C#CCN(C[C@H]1[C@H](OC(=O)Nc2c(C)noc2C)[C@H](OC(=O)Nc2c(C)noc2C)C[C@@H](C(=O)OC)[C@H]1C(=O)OC)S(=O)(=O)c1ccc(C)cc1	31.9 µM (active)

Parameter requested: AC50. Apply to each item below.
1. C[C@@H]1CN([C@@H](C)CO)C(=O)Cc2cc(NS(=O)(=O)c3ccc(Cl)cc3)ccc2O[C@H]1CN(C)Cc1ccc(Oc2ccccc2)cc1
2. CCC(=O)NC(c1ccc(C)cc1)c1ccc2cccnc2c1O (configuration not stated)
3. CN1c2ccc(-c3ccccc3)cc2[C@H]2[C@H](CCN2C(=O)NC2CCCCC2)[C@@H]1CO

6.27 µM (active)
1.81 µM (active)
11.5 µM (active)

Parameter requested: AC50. Apply to each item below.
1. COc1ccc(C#Cc2ccc([C@H]3[C@@H](CO)N4CCCCN(C(=O)Nc5ccccc5)C[C@H]34)cc2)cc1
2. C[C@@H]1CCCCO[C@H](CN(C)C(=O)Nc2ccc(F)cc2)[C@@H](C)CN([C@@H](C)CO)C(=O)c2cc(NC(=O)Nc3ccc(C(F)(F)F)cc3)ccc2O1
3. C[C@H]1CCCCO[C@@H](CN(C)C)[C@@H](C)CN([C@@H](C)CO)C(=O)c2cc(NC(=O)Nc3ccc(C(F)(F)F)cc3)ccc2O1

12.5 µM (active)
2.58 µM (active)
22.1 µM (active)

---

# target-system: Eukaryotic translation initiation factor 4E (Mus musculus)
# test-description: blockers of eIF4G binding by eIF4E – biochemical, TR-FRET, dose response (AID 855)
# Assay type: functional
The source made the active and inactive calls.
For each entry below, report its IC50 value.

compound	readout	reading
CC(/C=N\NC(=O)CN1CCN(S(=O)(=O)c2ccc(C)cc2)CC1)=C\c1ccccc1	IC50	> 64 µM (inactive)
COc1ccc(C2c3cc(OC)c(OC)cc3CCN2S(C)(=O)=O)cc1OC (stereo not drawn)	IC50	50 µM (inactive)

Turning now to a further compound:
Note to self: IC50 recorded for O=C(N=Nc1c(O)[nH]c2ccc([N+](=O)[O-])cc12)c1cc(-c2ccccc2Cl)nc2ccccc12 was > 64 µM (inactive)

---

# target-system: Sentrin-specific protease 8 (Homo sapiens, UniProt Q96LD8)
# Sequence (Q96LD8 whole entry): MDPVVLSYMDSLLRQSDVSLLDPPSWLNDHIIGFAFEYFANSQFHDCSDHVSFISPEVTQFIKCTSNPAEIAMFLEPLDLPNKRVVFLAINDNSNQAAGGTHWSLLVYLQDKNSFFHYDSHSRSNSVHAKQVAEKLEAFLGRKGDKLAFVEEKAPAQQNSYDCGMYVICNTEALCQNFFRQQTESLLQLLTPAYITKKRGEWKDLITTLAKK
# test-description: inhibition of human SENP8 cleavage activity – biochemical, luminescence, SAR follow-up (AID 504501)
# Format: functional
Active and inactive are the calls of the source.
Your response should consist of one outcome taken from active, inactive

molecule	label-value
CC(=O)Oc1ccccc1/C=C(\C)c1noc(-c2ccccc2O)n1	inactive
Cc1csc(C(=O)Nc2nc3ccccc3s2)c1	active
O=C(Nc1ccc(F)c(F)c1)c1ccc2c(c1)OCO2	active

Just curious, what result did O=C1/C(=C/c2cccc(F)c2)Oc2cc(O)ccc21 get here?
active

Just curious, what result did N#Cc1c(NC(=O)c2ccc(Cn3cc(Br)cn3)o2)sc2c1CCCCC2 get here?
inactive

Just curious, what result did O=C(Nc1nc2ccc(Cl)cc2s1)c1ccc(C(F)(F)F)cc1 get here?
inactive

---

# target-system: Eukaryotic translation initiation factor 4E (Mus musculus, UniProt P63073)
# Sequence (P63073 whole entry): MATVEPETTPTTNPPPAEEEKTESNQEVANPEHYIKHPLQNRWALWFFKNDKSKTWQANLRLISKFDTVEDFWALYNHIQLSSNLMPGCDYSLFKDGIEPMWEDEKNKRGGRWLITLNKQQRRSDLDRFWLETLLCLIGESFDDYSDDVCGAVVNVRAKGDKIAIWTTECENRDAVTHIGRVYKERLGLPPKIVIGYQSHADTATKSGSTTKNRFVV
# test-description: blockers of eIF4G binding by eIF4E – biochemical, TR-FRET, dose response (AID 855);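 further: potency for disrupting eIF4E binding to eIF4GI seen as loss of FRET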
# Assay type: functional
The source made the active and inactive calls.
Your response should consist of one outcome taken from active, inactive

Past entries and their recorded results:
molecule	target-system	label-value
N/C(=N\N=C/c1ccc(-c2ccc(O)c(C(=O)O)c2)o1)N[N+](=O)[O-]	Eukaryotic translation initiation factor 4E (Mus musculus, UniProt P63073)	inactive
Cc1ccc(-n2sc3ccccc3c2=O)cc1	Eukaryotic translation initiation factor 4E (Mus musculus, UniProt P63073)	active
CC1=CC(=O)NP(=O)(Oc2ccc3ccccc3c2)N1 (stereo unspecified)	Eukaryotic translation initiation factor 4E (Mus musculus, UniProt P63073)	active
O=C(N/N=C/c1ccc2c(c1)OCO2)c1sc2cc(Cl)ccc2c1Cl	Eukaryotic translation initiation factor 4E (Mus musculus, UniProt P63073)	inactive

Just curious, what result did CC1CCN(C(=O)c2ccc3c(Cl)c4c(nc3c2)CCCC4)CC1 get here?
inactive

Just curious, what result did COc1ccc(-c2cnnc(N/N=C/c3ccc(-c4ccc([N+](=O)[O-])cc4)o3)n2)cc1 get here?
inactive

---

# target-system: Voltage-dependent T-type calcium channel subunit alpha-1H (Homo sapiens);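 further: channel activity triggered by adding a high calcium stimulation buffer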
# Sequence (O95180 whole entry): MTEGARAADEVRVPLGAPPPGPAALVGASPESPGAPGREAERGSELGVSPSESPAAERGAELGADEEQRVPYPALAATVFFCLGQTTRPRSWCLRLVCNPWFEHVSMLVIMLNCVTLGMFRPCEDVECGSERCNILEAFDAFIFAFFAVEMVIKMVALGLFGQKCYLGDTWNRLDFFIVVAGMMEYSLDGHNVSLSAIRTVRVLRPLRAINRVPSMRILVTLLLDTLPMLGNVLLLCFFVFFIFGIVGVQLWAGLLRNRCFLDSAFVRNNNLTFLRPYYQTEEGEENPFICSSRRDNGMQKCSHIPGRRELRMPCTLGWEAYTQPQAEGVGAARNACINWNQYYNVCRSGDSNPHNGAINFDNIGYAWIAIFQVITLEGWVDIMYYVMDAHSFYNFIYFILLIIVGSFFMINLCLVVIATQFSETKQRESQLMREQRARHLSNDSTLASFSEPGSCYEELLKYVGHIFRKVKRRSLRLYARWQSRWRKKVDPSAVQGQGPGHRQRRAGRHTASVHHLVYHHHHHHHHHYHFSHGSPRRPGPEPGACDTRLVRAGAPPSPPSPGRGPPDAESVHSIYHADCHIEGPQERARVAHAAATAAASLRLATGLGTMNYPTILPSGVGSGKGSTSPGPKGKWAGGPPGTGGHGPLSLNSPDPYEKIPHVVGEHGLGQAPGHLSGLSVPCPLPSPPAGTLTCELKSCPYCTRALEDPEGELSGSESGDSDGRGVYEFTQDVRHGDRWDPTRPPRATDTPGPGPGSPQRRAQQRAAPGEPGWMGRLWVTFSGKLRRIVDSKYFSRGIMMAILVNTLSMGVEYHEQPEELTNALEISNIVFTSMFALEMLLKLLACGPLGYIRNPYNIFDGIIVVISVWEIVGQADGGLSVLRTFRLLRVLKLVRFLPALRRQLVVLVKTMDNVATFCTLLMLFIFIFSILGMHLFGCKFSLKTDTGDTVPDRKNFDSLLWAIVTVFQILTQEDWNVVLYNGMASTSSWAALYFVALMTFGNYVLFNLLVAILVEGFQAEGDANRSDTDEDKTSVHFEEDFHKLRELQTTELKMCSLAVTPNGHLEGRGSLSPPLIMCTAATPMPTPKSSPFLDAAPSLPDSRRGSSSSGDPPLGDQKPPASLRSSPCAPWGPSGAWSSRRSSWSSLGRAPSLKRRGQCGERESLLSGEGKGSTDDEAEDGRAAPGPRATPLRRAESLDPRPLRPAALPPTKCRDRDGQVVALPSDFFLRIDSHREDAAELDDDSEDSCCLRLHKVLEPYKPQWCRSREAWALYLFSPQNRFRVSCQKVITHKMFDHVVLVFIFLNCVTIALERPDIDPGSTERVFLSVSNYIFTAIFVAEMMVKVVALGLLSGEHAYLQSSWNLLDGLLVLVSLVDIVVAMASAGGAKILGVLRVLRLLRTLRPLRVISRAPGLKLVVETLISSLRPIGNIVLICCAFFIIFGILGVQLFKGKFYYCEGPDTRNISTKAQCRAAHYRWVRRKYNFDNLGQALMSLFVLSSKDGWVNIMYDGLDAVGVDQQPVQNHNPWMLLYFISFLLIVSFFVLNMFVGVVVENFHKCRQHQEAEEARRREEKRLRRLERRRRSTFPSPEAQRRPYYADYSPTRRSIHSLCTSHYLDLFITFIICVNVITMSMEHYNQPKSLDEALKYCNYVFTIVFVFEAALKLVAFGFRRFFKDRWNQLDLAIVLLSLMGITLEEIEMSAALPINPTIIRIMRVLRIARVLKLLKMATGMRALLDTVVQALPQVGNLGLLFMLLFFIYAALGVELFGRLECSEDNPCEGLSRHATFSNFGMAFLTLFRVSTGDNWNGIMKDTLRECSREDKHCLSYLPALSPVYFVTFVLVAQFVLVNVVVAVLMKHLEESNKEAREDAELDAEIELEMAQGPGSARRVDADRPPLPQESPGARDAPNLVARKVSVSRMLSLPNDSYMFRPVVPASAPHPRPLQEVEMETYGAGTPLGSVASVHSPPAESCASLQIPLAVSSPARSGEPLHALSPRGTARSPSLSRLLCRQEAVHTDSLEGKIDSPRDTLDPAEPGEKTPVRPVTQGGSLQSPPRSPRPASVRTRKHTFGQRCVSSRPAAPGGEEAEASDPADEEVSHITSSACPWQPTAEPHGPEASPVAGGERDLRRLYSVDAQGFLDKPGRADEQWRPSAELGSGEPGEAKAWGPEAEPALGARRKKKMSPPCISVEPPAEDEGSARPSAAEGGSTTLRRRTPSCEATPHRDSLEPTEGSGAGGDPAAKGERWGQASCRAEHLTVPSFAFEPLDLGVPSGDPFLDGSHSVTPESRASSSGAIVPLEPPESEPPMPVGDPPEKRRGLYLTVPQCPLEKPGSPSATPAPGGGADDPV
# Assay type: functional
The source made the active and inactive calls.
readout: EC50

In the examples that follow, each entry is paired with its recorded EC50.
compound	target-system	EC50
CCn1c(C(=O)N2CCC(C(=O)NCCCSC3CCCCC3)CC2)cc2sccc21	Voltage-dependent T-type calcium channel subunit alpha-1H (Homo sapiens)	3.51 µM (active)
Cc1cc(C)cc(-n2nnc(C(=O)NCc3ccc4c(c3)OCO4)c2N)c1	Voltage-dependent T-type calcium channel subunit alpha-1H (Homo sapiens)	2.39 µM (active)
Cc1ccc(-c2nnn(CC(=O)N(c3ccccc3)C(C(=O)NCC3CCCO3)c3ccc(Cl)cc3)n2)cc1 (stereo not given)	Voltage-dependent T-type calcium channel subunit alpha-1H (Homo sapiens)	11.1 µM (active)
COc1cc(OC)c(NC(=O)CS(=O)(=O)Cc2nc(-c3ccc(C)cc3)oc2C)cc1Cl	Voltage-dependent T-type calcium channel subunit alpha-1H (Homo sapiens)	5.56 µM (active)

// assay Voltage-dependent T-type calcium channel subunit alpha-1H (Homo sapiens), entry O=C(Nc1ccccc1Cl)c1cc(S(=O)(=O)N2CCCCC2)ccc1N1CCOCC1 , EC50 value = 5.14 µM (active)

---

# target-system: Heat shock factor protein 1 (Mus musculus, UniProt P38532)
# Sequence (P38532 whole entry): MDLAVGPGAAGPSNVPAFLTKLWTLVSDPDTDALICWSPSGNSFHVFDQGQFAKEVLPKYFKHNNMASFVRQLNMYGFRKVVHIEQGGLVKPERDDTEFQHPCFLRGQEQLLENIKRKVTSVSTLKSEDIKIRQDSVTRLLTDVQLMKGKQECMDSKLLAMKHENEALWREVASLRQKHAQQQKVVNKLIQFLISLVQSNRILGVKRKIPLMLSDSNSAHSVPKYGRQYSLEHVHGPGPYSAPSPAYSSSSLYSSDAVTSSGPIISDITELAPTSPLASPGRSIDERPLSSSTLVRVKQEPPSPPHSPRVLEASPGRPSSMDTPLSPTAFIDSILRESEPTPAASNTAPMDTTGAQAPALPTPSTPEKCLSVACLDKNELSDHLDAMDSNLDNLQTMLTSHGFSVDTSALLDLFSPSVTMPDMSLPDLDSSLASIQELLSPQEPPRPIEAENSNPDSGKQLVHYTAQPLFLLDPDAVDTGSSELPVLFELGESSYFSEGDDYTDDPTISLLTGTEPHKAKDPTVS
# test-description: decrease of HSF1-responsive luciferase luminescence – cell-based, NIH3T3, dose retest, confirmation (AID 2382);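 further: NIH3T3 fibroblasts with HSF1-driven luciferase reporter stressed by proteasome inhibitor MG132; luminescence from HSF1-driven luciferase expression after 8 hours of MG132 stress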
# Type: functional
readout: EC50

Parameter requested: EC50. Apply to each item below.
1. Cc1cc(NC(=O)Cn2ccc([N+](=O)[O-])n2)no1
2. Cc1cc(C(=O)CN2C(=O)C(=O)N(Cc3ccccc3)C2=O)c(C)n1-c1ccc2c(c1)OCCO2
3. C/C(Cc1ccccc1)=N\NC(=O)CNC(=O)Cc1ccc(Cl)cc1

["> 195 µM (not active)", "> 195 µM (not active)", "> 195 µM (not active)"]

Parameter requested: EC50. Apply to each item below.
1. O=C(CN1CCN(Cc2ccccc2)CC1)N/N=C\C=C/c1ccco1
2. COc1ccc(-c2nn(-c3ccccc3)cc2/C=C(\CC(=O)O)c2nc3ccccc3s2)cc1OC

1. > 195 µM (not active)
2. > 195 µM (not active)

All figures here come from ChEMBL document CHEMBL1201862.
